# protocol.description: in vitro
# measurement.context: human, uninfected MT-4 cells, CC50 (nM), same protocol as Test A, CellTiter-Glo
Could you please mark Fulfilled for values of CC50 at 5 days below 20000 nM and Not fulfilled for values at or above it?

Hello, is CC50 at 5 days of the following compound strictly smaller than 20000 nM? Cc1cc2ccn(CC(=O)N[C@@H](Cc3cc(F)cc(F)c3)c3ncccc3-c3ccc(F)c(C(N)=O)c3)c2cc1C [Example 498F]
Fulfilled

Hello, is CC50 at 5 days of the following compound strictly smaller than 20000 nM? Cc1ccc2c(c1)C(CC(=O)N[C@@H](Cc1cc(F)cc(F)c1)c1ncccc1-c1ccc(F)c(C(N)=O)c1)C(=O)N2 (stereo partly shown)
Not fulfilled

Hello, is CC50 at 5 days of the following compound strictly smaller than 20000 nM? `CN(C)C(=O)c1ccc(-c2cccnc2[C@H](Cc2cc(F)cc(F)c2)NC(=O)Cc2c[nH]c3ccc(O)cc23)cc1`
Not fulfilled

Hello, is CC50 at 5 days of the following compound strictly smaller than 20000 nM? `NC(=O)c1cccc(-c2cccnc2[C@H](Cc2cc(F)cc(F)c2)NC(=O)Cc2c[nH]c3ccc(=O)[nH]c23)c1`
Not fulfilled

Hello, is CC50 at 5 days of the following compound strictly smaller than 20000 nM? O=C(Cn1nc(C(F)(F)F)c2c1CC1CC21)N[C@@H](Cc1cc(F)cc(F)c1)c1ncccc1-c1cnc2[nH]ccc2c1 (stereo partly shown)
Fulfilled

Hello, is CC50 at 5 days of the following compound strictly smaller than 20000 nM? CN(C)C(C(=O)N[C@@H](Cc1cc(F)cc(F)c1)c1ncccc1-c1ccc(F)c(C(N)=O)c1)c1ccc(F)cc1 (single isomer, unassigned)
Not fulfilled

Hello, is CC50 at 5 days of the following compound strictly smaller than 20000 nM? `Cc1cc(-c2cccnc2[C@H](Cc2cc(F)cc(F)c2)NC(=O)Cc2c[nH]c3ccc(F)cc23)cnc1F`
Not fulfilled

Hello, is CC50 at 5 days of the following compound strictly smaller than 20000 nM? COCCOc1ccc(-c2cccnc2[C@H](Cc2cc(F)cc(F)c2)NC(=O)Cn2nc(C(F)F)c3c2C(F)(F)C2CC32)cc1 (stereo partly shown)
Not fulfilled

Hello, is CC50 at 5 days of the following compound strictly smaller than 20000 nM? NC(=O)c1cccc(-c2cccnc2[C@H](Cc2cc(F)cc(F)c2)NC(=O)Cc2c[nH]c3cc(C(F)(F)F)ccc23)c1 [Example 527E]
Fulfilled

Hello, is CC50 at 5 days of the following compound strictly smaller than 20000 nM? `Cc1c(C#N)c(C(F)(F)F)nn1CC(=O)N[C@@H](Cc1cc(F)cc(F)c1)c1ncccc1-c1ccc(N(C)C)c(C(N)=O)c1`
Not fulfilled

Hello, is CC50 at 5 days of the following compound strictly smaller than 20000 nM? O=C(Cc1n[nH]c2ccccc12)NC(Cc1cc(F)cc(F)c1)c1nccnc1-c1ccc(Cl)cc1 (stereo not shown)
Fulfilled

Hello, is CC50 at 5 days of the following compound strictly smaller than 20000 nM? `NC(=O)c1cc(-c2cccnc2[C@H](Cc2cc(F)cc(F)c2)NC(=O)Cn2nc(C(F)F)c3c2CCCC3)ccc1F`
Not fulfilled

Hello, is CC50 at 5 days of the following compound strictly smaller than 20000 nM? `CC(C)(C)OC(=O)N1CCc2c(C(F)(F)F)nn(CC(=O)N[C@@H](Cc3cc(F)cc(F)c3)c3ncccc3-c3ccc(F)c(C(N)=O)c3)c2C1`
Fulfilled
